Target: SSTR1
Test: pooled miR-30 sensor sort-seq; sequence = guide strand
Conditions: shRNA
Listing: sensor-assay potency score (higher = more potent) of selected sequences
measurement.name: sensor-assay potency score (higher = more potent)

> print(dat)
           residue.string   result
1  TAGATGACCATAGAGTTCCCAC   -0.705
2  TTAGATCTTTCTCAAGTCCAAC    -1.71
3  TGAGTTGTTAATGAGTTCGTGA  -0.0506
4  TAAACAAGAAAATAACTTCTTA   -0.323
5  TAAATTTGTATCCTCTTAGAAG    -1.31
6  TAAGGTGATCTTGCGCTCCGAG    0.115

----------
Target: RNF113A
Assay: pooled miR-30 sensor sort-seq; sequence = guide strand
Conditions: shRNA
measurement.name: sensor-assay potency score (higher = more potent)

> print(dat)
           residue.string  experimental.target  numeric.readout
1  TTTTCCTCTTCCTCTTCGCTGC              RNF113A            -0.23
2  TTAGCAATCAATTCTTTCGCTG              RNF113A           0.0148
3  TAGCAATCAATTCTTTCGCTGG              RNF113A            0.133
4  TTCGTCGCTACTGCTGCCGCTT              RNF113A           -0.608
5  TAGCTCGATGCTTCTCTAGTTT              RNF113A           -0.684
6  TAGTTTAGCAATCAATTCTTTC              RNF113A           -0.827
7  TACTGCTGCCGCTTTCTCCGGG              RNF113A           -0.242

----------
Target: IKBKG
Assay: pooled miR-30 sensor sort-seq; sequence = guide strand
Conditions: shRNA
Is sensor-assay potency score (higher = more potent) at least -0.7? Then class 1. If not, class 0.

> print(dat)
           residue.string  experimental.target  qualitative.label
1  TTCAGTTTGCTGTACTCCCTCT                IKBKG            class 1
2  TTCCTCATGTCCTCGATCCTGG                IKBKG            class 1
3  TTAGTGGCAGCCTCCAAGCGAC                IKBKG            class 0
4  TCACAATCTTGTGCTGCTCGGC                IKBKG            class 1
5  TTTGCTGTACTCCCTCTGCAGC                IKBKG            class 0
6  TGTGGTTGTCGTATTCTTGGAA                IKBKG            class 1
7  TCGTATTCTTGGAAGAGCTGGT                IKBKG            class 1

----------
Molecular target: ZNF214
Assay: pooled miR-30 sensor sort-seq; sequence = guide strand
Settings: shRNA
Reported sensor-assay potency score (higher = more potent) values are given for each entry in this list.
measurement.name: sensor-assay potency score (higher = more potent)

> print(dat)
           residue.string  experimental.target  result
1  TAGAACTGTGACTAAAACCCTT               ZNF214  -0.352
2  TCTTGTGGAAAACACACCGTGA               ZNF214  -0.342
3  TAAACTTTGATTAAAGCTGTTA               ZNF214  -0.478
4  TCTTTGATGAGTGTGAAGCTTT               ZNF214  -0.426
5  TTAACCATTCCTGACACTGGGA               ZNF214  -0.384
6  TCTGATGAAAGTGAACTCCGGA               ZNF214   0.913
7  TTGGATGTCTATACAAGTCTGA               ZNF214   0.602
8  TTATAGAATTTCTCTTCTGTGT               ZNF214  -0.222

----------
Molecular target: UNC5A
Assay: pooled miR-30 sensor sort-seq; sequence = guide strand
Details: shRNA
measurement.name: sensor-assay potency score (higher = more potent)

> print(dat)
           residue.string  numeric.readout
1  TTGGTGAGCTGGAACTTGGGGC           -0.337
2  TTGATGCTGAAGCTCTGCCCGT             -1.2
3  TTGCACTTGAAGAAGATCTGCG            0.732
4  TTGAAGTTGATGCTGAAGCTCT           -0.155
5  TAGACGATGACAGCAGCGGAGG            -1.55
6  TTGAGGATCATGGCTGTGGGGC            -1.23
7  TTAAGGGACAGCTTCGGCCGGG           -0.139
8  TCTCATAGATCTTCCCTCGGGG           -0.279

----------
Target: SLC25A18
Assay: pooled miR-30 sensor sort-seq; sequence = guide strand
Details: shRNA
measurement.name: sensor-assay potency score (higher = more potent)

> print(dat)
           residue.string  numeric.readout
1  TCGAGTTTTCAGAACATCTAGA          -0.0433
2  TAAAATACAGAAACAACCCTTC             0.73
3  TTAAAATACAGAAACAACCCTT            0.611
4  TTAAGGTTGGCAAACAGTGGGA           -0.285
5  TTCGAGTTTTCAGAACATCTAG           -0.224

----------
sensor-assay potency score (higher = more potent) reference
Molecular target: PITPNM3
Assay: pooled miR-30 sensor sort-seq; sequence = guide strand
Conditions: shRNA
measurement.name: sensor-assay potency score (higher = more potent)

> print(dat)
           residue.string  experimental.target  numeric.readout
1  TTGCTGAGACGCTTGCTGCTGG              PITPNM3           -0.433
2  TTCCTCGCTGTCTTCGTGGATC              PITPNM3            -1.05
3  TTCAGCAGCAATCACATCATTG              PITPNM3            -1.64
4  TAGACAGAGATGTCCTTCGTGG              PITPNM3           -0.052
5  TTACGAAGCCACTTCTCCCGGG              PITPNM3           -0.085
6  TTCAGGTGAGAGACAAGCGAGA              PITPNM3           -0.748
7  TATGTGATGCGACCACTGCTGT              PITPNM3           -0.671
8  TCTTCGTGGATCTCGATGCTTC              PITPNM3           -0.715

----------
Target: DNAJC4
Experiment: pooled miR-30 sensor sort-seq; sequence = guide strand
Settings: shRNA
This section presents sequences with their documented sensor-assay potency score (higher = more potent) values.
measurement.name: sensor-assay potency score (higher = more potent)

> print(dat)
           residue.string  numeric.readout
1  TTAACTTCCTCAGTGCTGGCAC             0.72
2  TAGAAGGCTGTGATGATCCGAT            0.303
3  TTGGGGGACTACCTGAGCGGAG            -1.16
4  TTTGGTGGGCAGACTTGTCATG           -0.548
5  TTGTCATGGACTGTGGTTCGTG           -0.505

----------
Target: CCL13
Experiment: pooled miR-30 sensor sort-seq; sequence = guide strand
Settings: shRNA
Reported sensor-assay potency score (higher = more potent) values for the following sequences.
measurement.name: sensor-assay potency score (higher = more potent)

> print(dat)
           residue.string  numeric.readout
1  ATTCTGGACCCACTTCTCCTTT            -1.22
2  AAGGAGATCTTCTTACTGCTAA           -0.229
3  TAAATGTGAAGCAGCAAGTAGA            -1.06
4  TAACACATAGTACATTTTGAAT            -1.62
5  TTACTTAACACATAGTACATTT            -1.04
6  ATCTTCTTACTGCTAAATGTGA            -1.06
7  TATAATTCTGGACCCACTTCTC           -0.771

----------
Biological target: KDR
Assay: pooled miR-30 sensor sort-seq; sequence = guide strand
Conditions: shRNA
Examples of sequences with documented sensor-assay potency score (higher = more potent) follow.
measurement.name: sensor-assay potency score (higher = more potent)

> print(dat)
           residue.string  result
1  TAGCTGATCATGTAGCTGGGAA  -0.114
2  TGTCTTTTCTTGGTCTTCCTGT   0.316
3  TTCTTCTTGGTCATCAGCCCAC  -0.727
4  TAATTTGGTTCTGTCTTCCAAA  -0.462
5  TTGACTGCTACTGTCCTGCAAG  -0.615

From: the OligoGym collection
